assay-remarks: NCI Yeast Anticancer Drug Screen. Data for the bub3 strain (AID 167)
applied-conditions: S. cerevisiae bub3 mutant strain, at 50.0 µM
About 79,000 compounds went through this panel and 15% of them were active in at least one assay; those are over-represented in the sample as a whole. Calls of active or inactive are those of the source. Rule as the data show it: active = growth inhibition above about 70%; inactive = the rest.
Labels: active, inactive

compound	group
O=C1CNC(=O)c2cc(N=Cc3cc(Br)ccc3O)ccc2N1	inactive
CC(=O)Nc1ccc(C(=O)NN2C(=O)C(Cl)C2c2cc(Br)cc(Br)c2O)cc1 (stereo not given)	inactive
O=C1CCC(Cc2ccc(C(F)(F)F)cc2)C(=O)N1 (stereo not given)	inactive
O=c1c(Cl)c(Cl)c(=O)c2sc3cc(Cl)ccc3[nH]c1=2	active
COC(=O)c1ccc(C)cc1C1CN=NC12Cc1cc(C)ccc1C2=O (stereo not given)	inactive

====

assay-remarks: NCI Yeast Anticancer Drug Screen. Data for the sgs1 mgt1 strain (AID 161);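 also: 0% = growth of cultures given vehicle only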
applied-conditions: S. cerevisiae sgs1 mgt1 strain, at 50.0 µM (retest, dose inferred, filed as 5.0), hits give high values
The panel holds about 79,000 compounds, 15% with a hit somewhere; the sample as a whole holds those more often.
Note to self: values exactly at 30% are 1. So growth inhibition at or above 30% is 1, below is -1.

compound	group
CCOC(=O)C1=C(c2ccccc2)SC(c2ccccc2)N(C(C)C)C1=O (configuration not stated)	1
CCNc1cc(SC)nc(N)n1	-1
O=C(O)c1ccc([N+](=O)[O-])o1	-1
Cc1ccc(C(=O)CC(N)C(=O)O)cc1 (configuration not stated)	-1
O=C(Cc1nc2ccc(Cl)cc2nc1CC(=O)c1ccccc1)c1ccccc1	1
CCc1ccccc1NC(=O)C(=O)C(C#N)c1c(Cl)cccc1Cl (configuration not stated)	-1
CC(C)(C)OC(=O)c1ccc(NCC2=C(Br)C(=O)C=CC2=O)cc1	1
Brc1ccc2[nH]c3ccccc3c2c1	1
Nc1ncc(C(=O)c2ccccc2)cc1[N+](=O)[O-]	-1
CC(=O)Oc1ccc(N=[N+]([O-])c2ccc(OC(C)=O)cc2)cc1	-1
O=C(O)C1CCCCC1.[Ag]	1
[N-]=[N+]=Nc1c([N+](=O)[O-])c(=O)n(-c2ccccc2)c2ccccc12	1
COc1ccc(C(CC(=O)c2ccc(C)cc2)Sc2ccccc2N)cc1 (configuration not stated)	-1
Cc1ccc2ccc(C(Nc3ccccc3)c3ccncc3)c(O)c2n1 (configuration not stated)	1
c1ccc(C2=NOC3(c4ccccc4)SC4CCCCC4CN23)cc1 (configuration not stated)	1
COc1ccc(C2SCC(=O)N2c2ccc(-c3ccc(-n4c(-c5ccccc5)nc5ccccc5c4=O)cc3)cc2)cc1 (configuration not stated)	1
NC(N)=Nc1ccc(Cc2ccc(N=C(N)N)cc2)cc1	-1

====

Reported growth inhibition values are given for each entry in this list.
assay-remarks: NCI Yeast Anticancer Drug Screen. Data for the mec2-1 strain (AID 157)
applied-conditions: S. cerevisiae mec2-1 strain, at 5.0 µM (retest, dose inferred, filed as 0.5), hits give high values
About 79,000 compounds went through this panel and 15% of them were active in at least one assay; those are over-represented in the sample as a whole.
endpoint: growth inhibition (%)

compound	endpoint	endpoint-result
COC(=O)c1ccccc1C=C(c1ccc([N+](=O)[O-])cc1)c1ccc([N+](=O)[O-])cc1	growth inhibition	-2
Nc1ccc([N+](=O)[O-])cc1Nc1c2ccccc2nc2ccccc12	growth inhibition	2
COc1ccccc1NC(=O)CSC(N)=O	growth inhibition	4
CSc1nc(=Nc2ccccc2)sn1-c1ccccc1	growth inhibition	26
S=C(Nc1ccc(Cl)c(Cl)c1)N1c2ccccc2-n2cccc2C1c1cccnc1 (stereo unspecified)	growth inhibition	46
N#CNc1nc(N)c(-c2ccc(Cl)cc2)c(C(=O)Nc2ccc(Cl)c(Cl)c2)n1	growth inhibition	-3
Cc1ccc(C(=O)CC(N)C(=O)O)cc1 (stereo unspecified)	growth inhibition	3
CC(/C=C/c1ccc(Cl)cc1)=N\NC(N)=S	growth inhibition	-1
C=C(Br)CN(C)CC(=C)Br	growth inhibition	7
CN(C)c1ccc(/C=C(/C#N)c2ccc(Cl)cc2)cc1	growth inhibition	0
CN(C)CC1CCc2c(ccc3ccccc23)C1=O (stereo unspecified)	growth inhibition	-16
O=C(n1c2ccccc2c2n[nH]c(=S)nc21)C(F)(F)F	growth inhibition	0
O/N=C1\c2ccccc2-c2ccc(Cl)cc21	growth inhibition	-5
Cc1ccc(S(=O)(=O)C(C#N)(CCC(=O)/C=C/c2ccccc2)CCC(=O)/C=C/c2ccccc2)cc1	growth inhibition	-4
C/C=C/C(=O)N1c2ccccc2CC1c1c(C)[nH]c2ccccc12 (stereo unspecified)	growth inhibition	3
C/C(=N\NC(=S)N1CCCC1)c1nc2ncccc2[nH]1	growth inhibition	-3

====

assay-remarks: NCI Yeast Anticancer Drug Screen. Data for the cln2 rad14 strain (AID 165);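 also: 0% = growth equal to vehicle treated cultures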
applied-conditions: S. cerevisiae cln2 rad14 strain, at 50.0 µM (retest, dose inferred, filed as 5.0)
About 79,000 compounds went through this panel and 15% of them were active in at least one assay; those are over-represented in the sample as a whole. Activity calls are given as the source filed them. No stated cut-off is given here; in the data, active means growth inhibition above about 70%; inactive means the rest.
Labels: YES for active, NO for inactive

compound	group
CN1C(OCc2ccccc2)c2c(ccc3c2OCO3)C2C=Cc3cc4c(cc3C21)OCO4 (stereo not given)	YES
O=C(NCCl)Nc1ccccc1	NO
O=C1CCC(Cc2ccc(C(F)(F)F)cc2)C(=O)N1 (stereo not given)	NO
Cc1ccc(S(=O)(=O)C(C#N)(CCC(=O)/C=C/c2ccccc2)CCC(=O)/C=C/c2ccccc2)cc1	NO
CC(C)S(=O)(=O)ON1C(=O)c2ccc(N(C)C)cc2C1=O	NO
COC(=O)C1=C(C(=O)OC)C2(C)OC1C(=O)C21CC1 (stereo not given)	YES
CCCCCCCCCCCCCCCc1ncc(C)[nH]1	YES
O=C1CN(/N=C\c2ccc([N+](=O)[O-])o2)C(=O)N1	NO
COc1ccccc1NC(c1ccccc1)c1ccc2cccnc2c1O (stereo not given)	NO
Cc1ccccc1C(O)(c1ccccc1C)C1(O)CCN(C)CC1	NO
CC1=NN(c2ccccc2)C(=O)C12[C@H](c1ccccc1)C2(C#N)C#N (stereo not given in full)	YES
CC(C)(C)c1ccc(O)c(CN(Cc2c(O)ccc3ccccc23)C2CCCCC2)c1	YES
C=CC(=O)N1C/C(=C\c2ccc([N+](=O)[O-])cc2)C(=O)/C(=C/c2ccc([N+](=O)[O-])cc2)C1	YES
O=S1CCS(=O)C1c1ccccc1 (stereo not given)	NO
Oc1cc2ccccc2cc1O	YES
CN(C)c1ccccc1CN1CCCN(Cc2ccccc2N(C)C)C1	NO
CC[n+]1cnc(N)c2c(-c3ccc(Cl)cc3)cn(-c3ccc(C)cc3)c21	YES
c1ccc(N=Nc2n[nH]c3ccccc23)cc1	NO
S=C(NC(=S)Nc1ccccc1)Nc1ccccc1	NO
N#CC(C#N)=c1c2nsnc2c(=C(C#N)C#N)c2nsnc12	YES

====

assay-remarks: NCI Yeast Anticancer Drug Screen. Data for the cln2 rad14 strain (AID 165);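 also: 0% = growth equal to vehicle treated cultures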
applied-conditions: S. cerevisiae cln2 rad14 strain, at 50.0 µM (retest, dose inferred, filed as 5.0)
Compounds without any hit were thinned out: in the full panel of roughly 79,000, 15% have a hit. Calls of active or inactive are those of the source. Cut-off read from the data, not from the text of the source: active = growth inhibition above about 70%; inactive = the rest.
Labels: YES (active), NO (inactive)

compound	group
O=C(O)c1cccc2c1Oc1c(cccc1C(=O)O)S2	NO
CCCCC(O)(c1ccc2nc(NC(=O)OC)[nH]c2c1)c1cccs1 (stereo not given)	NO
CS(=O)(=O)OCCN(CCOS(C)(=O)=O)c1ccc(C=Nc2ccc3ccccc3c2)c(Cl)c1	NO
CCOC(=O)c1[nH]cc(C)c1-c1ccc2c(-c3ccccc3)nc3ccccc3n12	YES
O=C1NC(CSSCC2NC(=O)N(c3ccccc3)C2=O)C(=O)N1c1ccccc1 (stereo not given)	YES

====

assay-remarks: NCI Yeast Anticancer Drug Screen. Data for the bub3 strain (AID 167)
applied-conditions: S. cerevisiae bub3 mutant strain, at 50.0 µM (retest, dose inferred, filed as 5.0)
Experimental: Growth inhibition of yeast strains with defined genetic alterations is measured as a screen for potential anti-cancer activity. Selected strains with alterations in DNA damage repair or cell cycle control were exposed to compounds and growth inhibition was measured relative to vehicle treated controls. The strain used in this assay is bub3
About 79,000 compounds went through this panel and 15% of them were active in at least one assay; those are over-represented in the sample as a whole. The source made the active and inactive calls. Rule as the data show it: active = growth inhibition above about 70%; inactive = the rest.
Labels: true (1) (active), false (0) (inactive)

molecule	group
CCNC(=S)N/N=C(/C)c1cccc(/C(C)=N\NC(=S)NCC)n1	false (0)
COc1ccc(OC)c2c(=S)c3ccccc3[nH]c12	false (0)
O=C(C(=O)c1ccc(Cc2ccc(C(=O)C(=O)c3ccccc3)cc2)cc1)c1ccccc1	false (0)
Cc1ccsc1/C=N/Nc1cc(C)c2cccc(C)c2n1	false (0)
CC(C)NC(=O)CN1C(=O)NC(C)(c2ccccc2)C1=O (centres undefined)	false (0)
OC1(c2ccccc2)CN(CCl)CC(c2ccccc2)O1 (centres undefined)	false (0)
CCCCSc1nc2c([nH]1)c(=S)n(C)c(=S)n2C	true (1)
BrC(Br)([P+](c1ccccc1)(c1ccccc1)c1ccccc1)[P+](c1ccccc1)(c1ccccc1)c1ccccc1	false (0)
Oc1ccc(C23CC4CC(CC(C4)C2)C3)cc1	false (0)
COC(=O)CSc1nc2[nH]c(SC)c(C(N)=O)c2c(=O)n1-c1ccccc1	false (0)
CC1(C)c2ccccc2Cc2cc3ccccc3nc21	true (1)
S=C(Nc1ccccc1)NC1CC2C=CC1CC2 (centres undefined)	false (0)
Nc1nn2c(C(Br)Br)cc(C(Br)Br)nc2c1[N+](=O)[O-]	true (1)
CC(=O)NC1=C(Sc2ccc([N+](=O)[O-])cc2)C(=O)c2ccccc2C1=O	false (0)
NC1C(=O)C2CCCCC2C(=O)C1C(=O)c1ccccc1 (centres undefined)	false (0)
CCCCCCCCCCCCCCCCCCNCCCCCCCCCCCCCCCC	false (0)
N#CNc1nc(N)c(-c2ccc(Cl)cc2)c(C(=O)Nc2ccc(Cl)c(Cl)c2)n1	false (0)
Oc1cccc(NCSc2ccc(Cl)cc2)c1	true (1)
COCc1ccc([N+](=O)[O-])o1	false (0)

// provenance: PubChem BioAssay (NCI)
